# ASSAY_COMMENT: in vitro
# PARTICULARS: human, plasma
# Description: Unbound fraction (plasma)
TEST_READOUT: fraction unbound
Answer using only a numeral; do not append any unit.

For `C[C@]12C=CC(=O)C=C1CC[C@@H]1[C@@H]2[C@@H](O)C[C@@]2(C)[C@H]1CC[C@]2(O)C(=O)CO` , what is its reported fraction unbound?
0.075

For `O=c1n(CCCN2CCN(c3cccc(Cl)c3)CC2)nc2ccccn12` , what is its reported fraction unbound?
0.07

For Cc1cccc(C)c1OCC(C)N (centres undefined) , what is its reported fraction unbound?
0.37

For `CN/C(=N/CCSCc1nc[nH]c1C)NC#N` , what is its reported fraction unbound?
0.81

Where these numbers come from: ChEMBL document CHEMBL1135488
